target system: PIKFYVE (Homo sapiens, UniProt Q9Y2I7)
Sequence (Q9Y2I7 whole entry): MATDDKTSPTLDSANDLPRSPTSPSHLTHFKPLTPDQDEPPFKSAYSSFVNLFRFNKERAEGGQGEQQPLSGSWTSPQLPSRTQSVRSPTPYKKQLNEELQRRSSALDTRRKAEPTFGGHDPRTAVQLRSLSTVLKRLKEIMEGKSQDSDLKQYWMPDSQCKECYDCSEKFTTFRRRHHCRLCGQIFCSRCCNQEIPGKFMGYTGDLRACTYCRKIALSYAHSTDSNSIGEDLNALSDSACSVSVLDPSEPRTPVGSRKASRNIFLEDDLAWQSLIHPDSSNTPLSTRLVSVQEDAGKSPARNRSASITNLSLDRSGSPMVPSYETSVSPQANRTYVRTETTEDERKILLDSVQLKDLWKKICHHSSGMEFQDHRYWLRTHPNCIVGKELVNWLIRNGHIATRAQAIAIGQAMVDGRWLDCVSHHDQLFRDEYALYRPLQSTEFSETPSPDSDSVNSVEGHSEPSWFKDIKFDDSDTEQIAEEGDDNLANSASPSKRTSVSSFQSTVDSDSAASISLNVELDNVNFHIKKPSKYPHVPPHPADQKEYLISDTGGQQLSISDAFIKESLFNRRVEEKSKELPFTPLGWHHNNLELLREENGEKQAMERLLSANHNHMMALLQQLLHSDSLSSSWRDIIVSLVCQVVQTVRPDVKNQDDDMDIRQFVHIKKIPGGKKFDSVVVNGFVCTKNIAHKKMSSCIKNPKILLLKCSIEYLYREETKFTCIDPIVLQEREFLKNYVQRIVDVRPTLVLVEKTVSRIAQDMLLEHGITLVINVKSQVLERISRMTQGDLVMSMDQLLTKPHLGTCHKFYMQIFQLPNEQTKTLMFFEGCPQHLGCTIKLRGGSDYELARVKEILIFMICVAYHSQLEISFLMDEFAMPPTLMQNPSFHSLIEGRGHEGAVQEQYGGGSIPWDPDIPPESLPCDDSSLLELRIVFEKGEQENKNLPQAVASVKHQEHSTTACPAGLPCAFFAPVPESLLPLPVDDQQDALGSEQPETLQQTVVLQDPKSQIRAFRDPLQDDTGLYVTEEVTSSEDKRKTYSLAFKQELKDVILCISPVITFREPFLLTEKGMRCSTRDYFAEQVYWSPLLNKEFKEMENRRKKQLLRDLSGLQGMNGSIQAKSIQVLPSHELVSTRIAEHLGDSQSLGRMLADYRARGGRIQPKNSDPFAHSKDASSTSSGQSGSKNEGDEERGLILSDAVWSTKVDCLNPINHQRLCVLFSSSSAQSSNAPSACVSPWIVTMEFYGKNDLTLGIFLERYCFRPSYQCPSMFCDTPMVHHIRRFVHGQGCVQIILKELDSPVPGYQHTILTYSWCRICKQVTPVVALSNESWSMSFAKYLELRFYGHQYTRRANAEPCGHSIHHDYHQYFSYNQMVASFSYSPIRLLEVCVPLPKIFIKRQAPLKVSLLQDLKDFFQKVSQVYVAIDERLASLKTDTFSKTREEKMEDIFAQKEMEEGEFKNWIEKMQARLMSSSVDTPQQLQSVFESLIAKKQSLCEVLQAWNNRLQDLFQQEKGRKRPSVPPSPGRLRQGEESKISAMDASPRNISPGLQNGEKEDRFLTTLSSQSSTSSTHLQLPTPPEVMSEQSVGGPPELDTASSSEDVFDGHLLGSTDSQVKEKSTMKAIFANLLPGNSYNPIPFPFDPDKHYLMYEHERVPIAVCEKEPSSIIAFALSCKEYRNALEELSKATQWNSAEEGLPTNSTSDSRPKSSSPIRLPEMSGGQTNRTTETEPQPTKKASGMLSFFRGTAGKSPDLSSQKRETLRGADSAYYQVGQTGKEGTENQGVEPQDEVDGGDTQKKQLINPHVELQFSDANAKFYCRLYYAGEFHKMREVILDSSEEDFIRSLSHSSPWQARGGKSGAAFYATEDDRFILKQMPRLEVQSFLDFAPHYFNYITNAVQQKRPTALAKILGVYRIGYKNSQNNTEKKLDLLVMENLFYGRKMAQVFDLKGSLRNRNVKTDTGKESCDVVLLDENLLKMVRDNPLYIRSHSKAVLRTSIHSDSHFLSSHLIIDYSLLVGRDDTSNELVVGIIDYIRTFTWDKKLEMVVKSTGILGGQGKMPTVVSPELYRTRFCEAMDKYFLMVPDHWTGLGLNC
assay info: PIKFYVE assay (luciferase ADP-Glo kinase assay, Promega)
Type: biochemical
test settings: Table 3
Below, each entry is listed with its recorded IC50.

INSERT INTO results (compound, observed) VALUES
  ('Cc1cccc(-c2ccn(-c3cc(N4CCOCC4)nc([C@H]4CCOC4)n3)n2)c1 (single isomer, unassigned)', '3 to 10 nM'),
  ('CN(C)Cc1cc(-c2ccccc2)nn1-c1cc(N2CCOCC2)nc(OCC2(C)COC2)n1', '10 to 100 nM'),
  ('Cc1cccc(-c2ccn(-c3cc(N4CCOCC4)nc(CCc4ccnn4C)n3)n2)c1', '3 to 10 nM'),
  ('Cc1cc(-c2ccccc2)nn1-c1nc2c(c(N3CCOCC3)n1)CN(CCc1ccn(C)n1)C2', '100 to 5000 nM'),
  ('Cc1cccc(-c2ccn(-c3cc(N4CCOCC4)nc(OCc4cn[nH]c4)n3)n2)c1', '10 to 100 nM');

Exercise: Hello, I am looking for reported IC50 with PIKFYVE (Homo sapiens, UniProt Q9Y2I7) for CO[C@H](CO)c1nc(N2CCOCC2)cc(-n2ccc(-c3csc4ccccc34)n2)n1 (single isomer, unassigned) . Could you help?
Solution: < 3 nM

Exercise: Hello, I am looking for reported IC50 with PIKFYVE (Homo sapiens, UniProt Q9Y2I7) for Cc1cccc(-c2ccn(-c3cc(N4CCOCC4)nc(COCc4cnn(C)c4)n3)n2)c1 . Could you help?
Solution: < 3 nM

Exercise: Hello, I am looking for reported IC50 with PIKFYVE (Homo sapiens, UniProt Q9Y2I7) for Cc1cccc(-c2ccn(-c3cc(N4CCOCC4)nc(OCC(=O)C4CC4)n3)n2)c1 . Could you help?
Solution: 3 to 10 nM

Exercise: Hello, I am looking for reported IC50 with PIKFYVE (Homo sapiens, UniProt Q9Y2I7) for Cc1cccc(-c2ccn(-c3cc(N4CCOCC4)nc(COCc4cn(C)cn4)n3)n2)c1 . Could you help?
Solution: 3 to 10 nM

Exercise: Hello, I am looking for reported IC50 with PIKFYVE (Homo sapiens, UniProt Q9Y2I7) for CO[C@H](CO)c1nc(N2CCOCC2)cc(-n2nc(-c3cccc(C)c3)cc2C)n1 [Compound 225] . Could you help?
Solution: 3 to 10 nM

Exercise: Hello, I am looking for reported IC50 with PIKFYVE (Homo sapiens, UniProt Q9Y2I7) for Cc1cccc(-c2cc(CN(C)C)n(-c3cc(N4CCOCC4)nc(OCC4(C)COC4)n3)n2)c1 . Could you help?
Solution: 3 to 10 nM

Exercise: Hello, I am looking for reported IC50 with PIKFYVE (Homo sapiens, UniProt Q9Y2I7) for Cc1cccc(-c2ccn(-c3cc(N4CCOCC4)nc(OCCc4ccccn4)n3)n2)c1 . Could you help?
Solution: 3 to 10 nM

Reference source: patent US20230135152A1
